ASSAY_EXPLANATION: chemical genetic growth profiling, strain panel (AID 1159580);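 note: tested at 20 µM; growth read once vehicle control cultures reached saturation at 30 °C; 1 = growth at the plate median or of vehicle wells; lower values mean less growth of the strain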
TEST_PARAMETERS: S. cerevisiae deletion strains, growth OD, locus YPL051W, strain arl3
Screen size: about 5,500 compounds; about 2,000 (36%) were called active. Another 18% or so got no clear call; they are omitted. Cut-off read from the data, not from the text of the source: active = normalized growth mostly below about 0.91 (no sharp cut-off); inconclusive = no clear call, values can overlap the other calls; inactive = mostly above about 0.92. The list shows a part of the results.
Possible outcomes: 1 (active), -1 (inactive)

| COMPOUND | CATEGORY |
| --- | --- |
| CC(=O)OC[C@H]1O[C@@H](Oc2cc(OC(C)=O)c3c(=O)cc(-c4ccc(OC(C)=O)cc4)oc3c2)[C@H](OC(C)=O)[C@@H](OC(C)=O)[C@@H]1OC(C)=O | -1 |
| O=c1oc2c(O)c(O)cc3c(=O)oc4c(O)c(O)cc1c4c23 | 1 |
| CC(=O)O[C@H]1CC[C@]2(C)C3CC[C@@]4(C)C(CC5O[C@@]6(CCC(C)CO6)[C@@H](C)C54)C3CC[C@@H]2C1 (stereo partly specified) | -1 |
| O=C(OC[C@H]1O[C@H](OC(=O)c2cc(O)c(O)c(OC(=O)c3cc(O)c(O)c(O)c3)c2)[C@H](OC(=O)c2cc(O)c(O)c(OC(=O)c3cc(O)c(O)c(O)c3)c2)[C@@H](OC(=O)c2cc(O)c(O)c(OC(=O)c3cc(O)c(O)c(O)c3)c2)[C@@H]1OC(=O)c1cc(O)c(O)c(OC(=O)c2cc(O)c(O)c(O)c2)c1)c1cc(O)c(O)c(OC(=O)c2cc(O)c(O)c(O)c2)c1 | 1 |
| OC(c1cc(C(F)(F)F)nc2c(C(F)(F)F)cccc12)C1CCCCN1 (stereo unspecified) | -1 |
| O=C(CCc1ccc(O)cc1)c1c(O)cc(O)cc1O[C@@H]1O[C@H](CO)[C@@H](O)[C@H](O)[C@H]1O | -1 |
| CC[C@H]1CN2CCc3cc(OC)c(OC)cc3C2C[C@@H]1CC1NCCc2cc(OC)c(OC)cc21 (stereo partly specified) | -1 |
| OCCN1CCN(CCCN2c3ccccc3Sc3ccc(C(F)(F)F)cc32)CC1 | 1 |
| C[C@]12CCC3C(CC[C@H]4C[C@H](OS(=O)(=O)O)CC[C@]34C)C1CCC2=O (stereo partly specified) | -1 |
| COc1cc(-c2coc3cc(O[C@@H]4O[C@H](CO)[C@@H](O)[C@H](O)[C@H]4O)c(OC)c(O)c3c2=O)cc(O)c1OC | -1 |
| CN1CCN(CCCN2c3ccccc3Sc3ccc(C(F)(F)F)cc32)CC1 | 1 |
| COc1c2ccoc2cc2oc(C)cc(=O)c12 | -1 |
| CC1=NN(c2ccccc2)C(=O)C1 | -1 |
| CC(=O)O[C@H]1CC[C@]2(C)C3CC(=O)[C@]4(C)C(C(C)=O)=CCC4C3CC[C@H]2C1 (stereo partly specified) | -1 |
| CC(=O)[C@@]1(O)CCC2C3CCC4=CC(=O)CC[C@]4(C)C3CC[C@@]21C (stereo partly specified) | -1 |
| CC(=O)O[C@@H]1CC[C@]2(C)C3CC[C@]4(C)C(=O)CCC4C3CC[C@H]2C1 (stereo partly specified) | -1 |

Each recorded value in this set is attributed to PubChem BioAssay AID1159580.
